target: TgCDPK1 128G (Toxoplasma gondii); assay: TgCDPK1 enzyme inhibition assay (Kinase Glo), wild type glycine gatekeeper; settings: read-out: TgCDPK1 128G IC50, 10 μM ATP
Sequence (Q9BJF5 1-507): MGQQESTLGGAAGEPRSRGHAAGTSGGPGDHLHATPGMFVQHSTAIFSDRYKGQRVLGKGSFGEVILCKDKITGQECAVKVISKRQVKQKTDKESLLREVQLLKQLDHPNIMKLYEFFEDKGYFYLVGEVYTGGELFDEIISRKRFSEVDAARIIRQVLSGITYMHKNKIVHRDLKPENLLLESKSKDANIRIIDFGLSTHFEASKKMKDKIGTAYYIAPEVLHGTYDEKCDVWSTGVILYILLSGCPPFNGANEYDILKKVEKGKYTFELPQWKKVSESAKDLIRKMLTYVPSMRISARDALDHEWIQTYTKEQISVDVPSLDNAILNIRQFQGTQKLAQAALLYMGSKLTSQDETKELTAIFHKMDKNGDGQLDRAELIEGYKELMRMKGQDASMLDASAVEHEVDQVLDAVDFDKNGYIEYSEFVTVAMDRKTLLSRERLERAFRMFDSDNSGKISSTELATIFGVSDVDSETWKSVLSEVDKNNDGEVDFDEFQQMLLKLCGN
Readout kind: pIC50
Give bare numbers, as −log10 of the molar value.

CCOc1ccc2cc(-c3nn(CC4CCN(C)CC4)c4ncnc(N)c34)ccc2n1: 8.22

Pending compound:
The measured pIC50 that CCOc1ccc2cc(-c3nn(C4CCOCC4)c(N)c3C(N)=O)ccc2n1 showed for TgCDPK1 128G (Toxoplasma gondii) is 7.52

---

I'd be grateful if you could share measured EC50 for these entries.
system: T. gondii TgMAPKL1 parental strain (RH, β-galactosidase transgene); assay: T. gondii proliferation inhibition assay, β-galactosidase readout, parent strain; format: cell-based, Toxoplasma gondii; settings: read-out: TgMAPKL1 Parental EC50 (95% CI), β-galactosidase activity, 72 h
Give bare numbers, in nM.

Example entries and their recorded answers appear below.
CCOc1ccc2cc(-c3nn(CC4CCN(C)CC4)c4ncnc(N)c34)ccc2n1 [BKI-1369]: 38
CCOc1ccc2cc(-c3nn(C4CCOCC4)c(N)c3C(N)=O)ccc2n1 [BKI-1841]: 140

Parameter requested: EC50. Apply to each item below.
1. CCOc1ccc2cc(-c3nn(CC4CCN(C)CC4)c4ncnc(N)c34)ccc2c1 [BKI-1294]
2. CCOc1ccc2cc(-c3nn(C(C)(C)C)c(N)c3C(N)=O)cnc2c1 [BKI-1517]

Output line:
[22, 80]

---

tested on: T. gondii TgCDPK1 G128M; test: T. gondii proliferation inhibition, remaining host cell nuclei (DAPI), TgCDPK1 G128M strain; assay type: cell-based, Toxoplasma gondii; details: read-out: TgCDPK1 G128M EC50 (95% CI); remaining host cell nuclei; 5 days
Readout kind: EC50 (µM)
One number for each entry, in µM.

Notebook: CCOc1ccc2cc(-c3nn(CC4CCN(C)CC4)c4ncnc(N)c34)ccc2c1 , EC50 read as 1.5
